test_summary: Half-life in monkey liver microsome at 1 uM preincubated for 5 mins followed by NADPH addition measured up to 120 mins by LC-MS/MS analysis
Format: ADME, Macaca mulatta
measurement_parameters: rhesus monkey, liver microsomes, time <=125 min
endpoint_name: half-life at 1 µM

- O=C(O)CNC(=O)c1ncc(C#CCOc2ccc(Cl)cc2)cc1O: > 1.65 h

----------
test_summary: Clearance in Beagle dog at 2 mg/kg, ig by LC-MS/MS analysis
Format: ADME, organism-based, Canis lupus familiaris
measurement_parameters: in vivo, po
endpoint_name: CL/F

* O=C(O)CNC(=O)c1ncc(C#CCOc2ccc(Cl)cc2)cc1O [DDO-3055] | 25.5 mL/min/kg
